hemolysis at 40 min, 6 µM values for the compounds below.
test: Toxicity in human erythrocytes assessed as hemolysis at 6 uM after 40 mins; assay type: cell-based, Erythrocyte; conditions: read-out: Activity
Where a SMILES comes first, the peptide text is derived from it. [ ]: non-standard residue; d: D form. Orn = NCCC[C@H](N)C(=O)O
# number only, unit % dropped from output

Here are 3 compounds together with their reported answers.
CC[C@@H](C)[C@@H](NC(=O)[C@@H](CCCNC(=N)N)NC(=O)CNC(=O)[C@@H](CC(C)C)NC(=O)[C@@H](Cc1ccccc1)NC(=O)[C@@H](CCCCN)NC(=O)[C@@H](CO)NC(=O)[C@@H](Cc1ccccc1)NC(=O)[C@@H](Cc1c[nH]c2ccccc12)NC(=O)[C@@H](CCC(N)=O)NC(=O)[C@H](NC(=O)[C@H](N)Cc1ccccc1)C(C)C)C(=O)N[C@H](CC(C)C)C(N)=O
46
CC(C)C[C@H](NC(=O)[C@H](CC(C)C)NC(=O)[C@H](CCCNC(=N)N)NC(=O)CNC(=O)[C@H](CC(C)C)NC(=O)[C@H](CC(C)C)NC(=O)[C@H](CCCCN)NC(=O)[C@H](CO)NC(=O)[C@H](CC(C)C)NC(=O)[C@H](Cc1c[nH]c2ccccc12)NC(=O)[C@H](CCC(N)=O)NC(=O)[C@H](CC(C)C)NC(=O)[C@@H](N)CC(C)C)C(N)=O (H-LLQWLSKLLGRLL-NH2)
25
CC[C@H](C)[C@H](NC(=O)[C@H](CCCN)NC(=O)CNC(=O)[C@H](CC(C)C)NC(=O)[C@H](Cc1ccccc1)NC(=O)[C@H](CCCCN)NC(=O)[C@H](CO)NC(=O)[C@H](Cc1ccccc1)NC(=O)[C@H](Cc1c[nH]c2ccccc12)NC(=O)[C@@H]1CCCN1C(=O)[C@@H](NC(=O)[C@@H](N)Cc1ccccc1)C(C)C)C(=O)N[C@@H](CC(C)C)C(N)=O (H-FVPWFSKFLG[Orn]IL-NH2)
2

Looking up CC[C@H](C)[C@H](NC(=O)[C@H](CCCNC(=N)N)NC(=O)CNC(=O)[C@H](CC(C)C)NC(=O)[C@H](Cc1ccccc1)NC(=O)[C@H](CCCCN)NC(=O)[C@H](CO)NC(=O)[C@H](Cc1ccccc1)NC(=O)[C@H](Cc1c[nH]c2ccccc12)NC(=O)[C@@H]1CCCN1C(=O)[C@@H](NC(=O)[C@@H](N)Cc1ccccc1)C(C)C)C(=O)N[C@@H](CC(C)C)C(N)=O (H-FVPWFSKFLGRIL-NH2) , I see its hemolysis at 40 min, 6 µM listed as 10
